- Tested on: Ctenocephatides felis, adult cat fleas
- test_summary: Contact activity against adult cat fleas, coated glass vial assay
- Assay type: in vivo
- conditions: Conc. 2 ug/cm2, 4 h
Provide the recorded % Mortality 4 h for the entries that follow.
The answer is to be given in %; state only the numeric part.

Given the compound CC1(c2nn(-c3c(Cl)cc(C(F)(F)F)cc3Cl)c([N+](=O)[O-])c2C#N)CC1(Cl)Cl (centres unmarked) , what is its reported % Mortality 4 h? 0

Given the compound "N#Cc1c(C2CC2)nn(-c2c(Cl)cc(C(F)(F)F)cc2Cl)c1Cl" , what is its reported % Mortality 4 h? 100

Given the compound CC1(c2nn(-c3c(Cl)cc(C(F)(F)F)cc3Cl)c(N)c2C#N)CC1(Cl)Cl (centres unmarked) , what is its reported % Mortality 4 h? 0

Given the compound CC1(c2nn(-c3c(Cl)cc(Cl)cc3Cl)c(Br)c2C#N)CC1(Cl)Cl (centres unmarked) , what is its reported % Mortality 4 h? 0

Given the compound CCCOC=Nc1c(C#N)c(C2(C)CC2(Cl)Cl)nn1-c1c(Cl)cc(C(F)(F)F)cc1Cl (racemic) , what is its reported % Mortality 4 h? 0

Given the compound COC=Nc1c(C#N)c(C2(C)CC2(Cl)Cl)nn1-c1c(Cl)cc(C(F)(F)F)cc1Cl (centres unmarked) , what is its reported % Mortality 4 h? 10

Given the compound CC1(c2nn(-c3c(Cl)cc(C(F)(F)F)cc3Cl)c(Cl)c2C#N)CC1(Br)Br (centres unmarked) , what is its reported % Mortality 4 h? 20

Given the compound CC1(c2nn(-c3c(Cl)cc(Cl)cc3Cl)c(Cl)c2C#N)CC1(Cl)Cl (centres unmarked) , what is its reported % Mortality 4 h? 10
